Sourced from ChEMBL document CHEMBL4842329

Target: Sodium-dependent serotonin transporter (Homo sapiens, UniProt P31645)
Sequence (P31645 whole entry): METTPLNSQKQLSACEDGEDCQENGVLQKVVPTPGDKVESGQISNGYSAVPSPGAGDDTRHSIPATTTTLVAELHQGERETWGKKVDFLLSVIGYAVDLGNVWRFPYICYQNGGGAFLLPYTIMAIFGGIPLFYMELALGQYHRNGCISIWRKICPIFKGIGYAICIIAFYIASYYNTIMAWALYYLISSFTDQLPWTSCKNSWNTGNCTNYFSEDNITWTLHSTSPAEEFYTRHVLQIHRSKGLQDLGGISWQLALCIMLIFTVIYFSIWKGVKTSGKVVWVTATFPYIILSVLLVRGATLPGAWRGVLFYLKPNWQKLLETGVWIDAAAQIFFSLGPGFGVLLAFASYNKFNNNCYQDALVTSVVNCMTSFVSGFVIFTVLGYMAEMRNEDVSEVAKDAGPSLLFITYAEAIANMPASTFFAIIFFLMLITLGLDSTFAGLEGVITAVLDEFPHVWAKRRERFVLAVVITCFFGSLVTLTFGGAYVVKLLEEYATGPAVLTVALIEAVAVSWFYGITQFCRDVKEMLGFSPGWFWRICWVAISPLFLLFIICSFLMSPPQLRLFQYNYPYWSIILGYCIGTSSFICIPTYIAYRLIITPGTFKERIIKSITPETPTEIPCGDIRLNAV
Assay: biochemical
Type: cell-based, HEK293
pKi: −log10 of the molar value.
Binary call on pKi: satisfied from 7 upward, not satisfied beneath that.

| COMPOUND | SYSTEM_UNDER_TEST | CLASSIFICATION |
| --- | --- | --- |
| COCCCC/C(=N\OCCN)c1ccc(Cl)cc1F | Sodium-dependent serotonin transporter (Homo sapiens, UniProt P31645) | not satisfied |

Incoming: Dear colleague, could you confirm whether CNCCC(Oc1ccc(Cl)cc1)c1ccccc1 (centres undefined) has pKi at or above 7?
Outgoing: satisfied

Incoming: Please indicate if the recorded pKi for CNCCC(Oc1ccc(F)cc1)c1ccccc1 (centres undefined) meets or exceeds 7.
Outgoing: not satisfied

Incoming: Check if pKi >= 7 (inclusive). Item: CNCCC(Oc1ccccc1)c1ccccc1 (centres undefined)
Outgoing: not satisfied

Incoming: State whether the measured pKi reaches 7, counting equality as reaching it, for COCCCC/C(=N\OCCN)c1ccc(Br)cc1
Outgoing: satisfied

Incoming: Check if pKi >= 7 (inclusive). Item: CNCCC(Oc1cccc(F)c1)c1ccccc1 (centres undefined)
Outgoing: not satisfied

Incoming: pKi >= 7 for COCCCC/C(=N\OCCN)c1ccc(F)cc1 ?
Outgoing: not satisfied
